Target Of Assay: TIMP-1 (tissue inhibitor of metalloproteinases 1) (human, UniProt P01033 24-207)
Sequence (P01033 24-207): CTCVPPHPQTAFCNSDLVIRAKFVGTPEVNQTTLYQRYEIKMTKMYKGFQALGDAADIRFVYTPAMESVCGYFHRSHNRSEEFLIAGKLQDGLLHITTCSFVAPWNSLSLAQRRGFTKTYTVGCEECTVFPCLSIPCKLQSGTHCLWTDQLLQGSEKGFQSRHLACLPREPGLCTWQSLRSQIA
Method Description: BLI; DPBS + 0.025% Tween 20; kon 1.30e6 M-1 s-1, koff 5.36e-4 s-1; 1:1 with mass transport; DPBS (138 mM NaCl, 2.67 mM KCl, 8.1 mM Na2HPO4, 1.47 mM KH2PO4, 1 mM CaCl2, 0.5 mM MgCl2); BLI with 0.025% Tween 20; pH and temperature not stated
Details: protein: commercial; tags: His; label: biotin (BLI); hairpin
Readout Name: Kd

In [3]: df
Out[3]:
                                     binder  readout_name  result
0  Apt-4 (ssDNA) DNA: CACGCATAGCGCCCCAACCCCAGTCGATGAAATTGCGTCGCGGGTGCCTATGCGTG            Kd  410 pM
